Reported pEC50 by item:
Test: Inhibition of reverse transcriptase Y188L mutant in HIV-1 3B infected in human MT4 cells assessed as reduction in virus-induced cytopathic effect incubated for 5 days by MTT assay
pEC50: −log10 of the molar value.
MEASURED_PROPERTY: pEC50

- COMPOUND: "N#Cc1ccc(Nc2nccc(C(O)c3ccc(-c4ccc(C#N)cc4)cc3F)n2)cc1 (stereo not given)"
  MODIFIER_SIGN: "="
  VALUE_MEASURED: 5.38
- COMPOUND: "N#Cc1ccc(Nc2nccc([C@H](O)c3ccc(-c4ccc(C#N)cc4)cc3F)n2)cc1"
  MODIFIER_SIGN: "<"
  VALUE_MEASURED: 4.52
- COMPOUND: "N#Cc1ccc(Nc2nccc([C@@H](O)c3c(F)cc(-c4ccc(C#N)cc4)cc3F)n2)cc1"
  MODIFIER_SIGN: "="
  VALUE_MEASURED: 5.65
- COMPOUND: "N#Cc1ccc(Nc2nccc([C@H](O)c3ccc(-c4ccc(C#N)cc4)cc3C(F)(F)F)n2)cc1"
  MODIFIER_SIGN: "<"
  VALUE_MEASURED: 4.62
- COMPOUND: "Cc1cc(-c2ccc(C#N)cc2)cc(C)c1[C@@H](O)c1ccnc(Nc2ccc(C#N)cc2)n1"
  MODIFIER_SIGN: "="
  VALUE_MEASURED: 5.66
